Method Summary: Antibiotic concentrations in porcine oral fluid after intramuscular application (UHPLC-MS/MS)
Assay type: in vivo
Condition Info: male, (Landrace × Yorkshire) × Duroc crossbred (DanBred sows), pig, intramuscular; oral fluid, pigs, i.m., time 7 d, posttreatment; read-out: Avarage Concentrations in oral fluid
Each entry below lists one item and its recorded concentration at 7 d value.
Provide only the numeric value, understood in ng/mL.

### Prompt What does the record list as concentration at 7 d for CC1(C)S[C@@H]2[C@H](NC(=O)Cc3ccccc3)C(=O)N2[C@H]1C(=O)O ?
### Response 32

Continuing:
### Prompt Look up concentration at 7 d: COc1cc(Cc2cnc(N)nc2N)cc(OC)c1OC
### Response 264

### Prompt Could you do the same for CC[C@H]1OC(=O)C[C@@H](O)[C@H](C)[C@@H](O[C@@H]2O[C@H](C)[C@@H](O[C@H]3C[C@@](C)(O)[C@@H](O)[C@H](C)O3)[C@H](N(C)C)[C@H]2O)[C@@H](CC=O)C[C@@H](C)C(=O)/C=C/C(C)=C/[C@@H]1CO[C@@H]1O[C@H](C)[C@@H](O)[C@@H](OC)[C@H]1OC , please?
### Response 175

### Prompt Next record, please: COc1ncnc(NS(=O)(=O)c2ccc(N)cc2)c1OC
### Response 310

### Prompt Same question for C=C[C@]1(C)C[C@@H](OC(=O)CSCCN(CC)CC)[C@]2(C)[C@H](C)CC[C@]3(CCC(=O)[C@H]32)[C@@H](C)[C@@H]1O please.
### Response 2570

### Prompt CCC[C@@H]1C[C@@H](C(=O)N[C@@H]([C@H]2O[C@H](SC)[C@H](O)[C@@H](O)[C@H]2O)[C@@H](C)O)N(C)C1 , same question.
### Response 1480

###

Method Summary: Antibiotic concentrations in porcine oral fluid after intramuscular application (UHPLC-MS/MS)
Assay type: in vivo
Condition Info: male, (Landrace × Yorkshire) × Duroc crossbred (DanBred sows), pig, intramuscular; oral fluid, pigs, i.m., time 30 d, posttreatment; read-out: Avarage Concentrations in oral fluid
Quick list: concentration at 30 d per entry.
State the answer as a number, implicitly in ng/mL.

### Prompt Requested read-out: concentration at 30 d. Entry: COc1cc(Cc2cnc(N)nc2N)cc(OC)c1OC [TRMP, trimethoprim]
### Response 22.4

### Prompt Now consider C=C[C@]1(C)C[C@@H](OC(=O)CSCCN(CC)CC)[C@]2(C)[C@H](C)CC[C@]3(CCC(=O)[C@H]32)[C@@H](C)[C@@H]1O [TIAM, tiamulin] and answer again.
### Response 46.9

### Prompt Next entry: CCC[C@@H]1C[C@@H](C(=O)N[C@@H]([C@H]2O[C@H](SC)[C@H](O)[C@@H](O)[C@H]2O)[C@@H](C)O)N(C)C1 [LIN, lincomycin]
### Response 58.1

### Prompt Can you check COc1ncnc(NS(=O)(=O)c2ccc(N)cc2)c1OC [SDX, sulfadoxine] next?
### Response 23

###

Method Summary: Antibiotic concentrations in porcine oral fluid after intramuscular application (UHPLC-MS/MS)
Format: in vivo
Condition Info: male, (Landrace × Yorkshire) × Duroc crossbred (DanBred sows), pig, intramuscular; oral fluid, pigs, i.m., time 28 d, posttreatment; read-out: Avarage Concentrations in oral fluid
Metric Name: concentration at 28 d (ng/mL)
Number only, in ng/mL; omit the unit.

### Prompt Which concentration at 28 d value is on record for COc1cc(Cc2cnc(N)nc2N)cc(OC)c1OC ?
### Response 16.5

### Prompt Next compound up: COc1ncnc(NS(=O)(=O)c2ccc(N)cc2)c1OC
### Response 35

### Prompt What about C=C[C@]1(C)C[C@@H](OC(=O)CSCCN(CC)CC)[C@]2(C)[C@H](C)CC[C@]3(CCC(=O)[C@H]32)[C@@H](C)[C@@H]1O ?
### Response 35.8

New cases:
### Prompt Given CCC[C@@H]1C[C@@H](C(=O)N[C@@H]([C@H]2O[C@H](SC)[C@H](O)[C@@H](O)[C@H]2O)[C@@H](C)O)N(C)C1 , state its recorded concentration at 28 d.
### Response 103
